The reported numbers originate from ChEMBL document CHEMBL3232767.

- Species: Oryctolagus cuniculus
- procedure-summary: Inhibition of translation in rabbit reticulocyte lysates using SP6 RNA polymerase at 10 uM by FF/HCV/Ren reporter gene assay
- Format: functional
Activity calls are given as the source filed them. The calls are words filed in the database; no cut-off is given here.
Outcome field: choose from true (1) (active), false (0) (inactive)

As a guide, the following entries are already answered.
• C[C@H]1C[C@@]2(O[C@H]3C[C@H]4[C@@H]5CC[C@H]6C[C@@H](O)CC[C@]6(C)[C@H]5[C@@H](O)C[C@]4(C)[C@H]3[C@@]2(C)O)OC1(C)C = false (0)
• CC[C@@]1(O)[C@H]2[C@H](C[C@H]3[C@@H]4CC[C@H]5C[C@H](O)CC[C@]5(C)[C@H]4[C@@H](O)C[C@@]32C)O[C@]12C[C@H](C)C(C)(C)O2 = false (0)
• CC[C@@]1(O)[C@H]2[C@H](C[C@H]3[C@@H]4CC[C@H]5C[C@H](O)CC[C@]5(C)[C@H]4[C@@H](O)C[C@@]32C)O[C@@]12C[C@H](C)C(C)(C)O2 = false (0)
• C[C@H]1C[C@]2(O[C@H]3C[C@H]4[C@@H]5CC[C@H]6C[C@H](O)CC[C@]6(C)[C@H]5[C@@H](O)C[C@]4(C)[C@H]3C2=O)OC1(C)C = false (0)

Incoming: Per the records of this test, what outcome belongs to C[C@H]1C[C@@]2(O[C@H]3C[C@H]4[C@@H]5CC[C@H]6C[C@H](O)CC[C@]6(C)[C@H]5[C@@H](O)C[C@]4(C)[C@H]3[C@@]2(C)O)OC1(C)C ?
Outgoing: true (1)

---

- Species on record: Oryctolagus cuniculus
- procedure-summary: Inhibition of translation in rabbit reticulocyte lysates using SP6 RNA polymerase at 10 uM by FF/HCV/Ren reporter gene assay
- Assay type: functional
Calls of active or inactive are those of the source. No cut-off for these calls is given here.
reported-property: inhibition

* C[C@H]1C[C@]2(O[C@H]3C[C@H]4[C@@H]5CC[C@H]6C[C@H](O)CC[C@]6(C)[C@H]5[C@@H](O)C[C@]4(C)[C@H]3[C@H]2O)OC1(C)C | inactive
* C[C@H]1C[C@]2(O[C@H]3C[C@H]4[C@@H]5CC[C@H]6C[C@H](O)CC[C@]6(C)[C@H]5[C@@H](O)C[C@]4(C)[C@H]3[C@]2(O)CO)OC1(C)C | inactive

---

- Species: Oryctolagus cuniculus
- procedure-summary: Inhibition of translation in rabbit reticulocyte lysates using SP6 RNA polymerase at 10 uM by FF/HCV/Ren reporter gene assay
- Format: functional
Activity calls are given as the source filed them. The rule behind the calls is not given here.
Outcome field: choose from Yes (active), No (inactive)

As a guide, the following entries are already answered.
• COc1ccc(C[C@H]2NC[C@H](O)[C@H]2OC(C)=O)cc1 = Yes
• C[C@H]1C[C@@]2(O[C@H]3C[C@H]4[C@@H]5CC[C@H]6C[C@H](N)CC[C@]6(C)[C@H]5[C@@H](O)C[C@]4(C)[C@H]3[C@@]2(C)O)OC1(C)C = No

Please find the next compound below.
Incoming: Per the records of this test, what outcome belongs to C[C@H]1C[C@@]2(O[C@H]3C[C@H]4[C@@H]5CC[C@H]6C[C@H](O)CC[C@]6(C)[C@H]5[C@@H](O)C[C@]4(C)[C@H]3[C@H]2O)OC1(C)C ?
Outgoing: No
